Collected z-score values appear next to each entry.
- RUN_DESCRIPTION: compound effects on multiple myeloma cell viability – MM1S, calcein-AM fluorescence, 48 h, basal, profiling panel (AID 1165);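 also: viability of MM1S multiple myeloma cells under basal unstimulated conditions; test concentration not given here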
- SETTINGS: higher = more signal
No unit in the answer, only the number.

# COMPOUND, z-score
measured = [
    ("O=C1OCC=C[C@H]2OC34C=CCN(c5ccc6ccccc6c5)C(=O)[C@H]3N(CCO)C(=O)[C@@H]4[C@@H]12 (stereo not given in full)", -0.102),
    ("Cc1ccc(C(C)CC(O)C2C=CC3C(=O)NC(=O)C3N2Nc2ccccn2)o1 (stereo not given)", -0.333),
    ("O=C1O[C@@H](c2ccccc2)[C@@H](c2ccccc2)N2[C@@H](c3ccccc3OCCO)[C@]3(C(=O)Nc4ccc(C#CC5(O)CCCCCC5)cc43)[C@@H](C(=O)NC[C@H](O)c3ccccc3)[C@H]12", -3.31),
    ("CCCC[C@H]1OB(O)C[C@H]2C1=C(C)Cn1c(=O)n(-c3ccccc3)c(=O)n12", -0.337),
    ("C=C(C(=O)CC[C@@H](OC(C)=O)c1ccc(OCCO)cc1)C(C)C", -1.06),
]

In one line, give reported z-score of the entry CCN(CC)c1ccc(N2CC=CC34O[C@@H]5C=CCCOC(=O)C5[C@H]3C(=O)N(CCCO)[C@@H]4C2=O)cc1 (stereo not given in full) .
-0.0503

Retrieve z-score measured for `NC(=O)NCC#Cc1ccc2c(c1)[C@]1(C(=O)N2)[C@H](c2ccccc2OCCO)N2[C@H](c3ccccc3)[C@H](c3ccccc3)OC(=O)[C@H]2[C@@H]1C(=O)N1CCCCCCC1` and print it.
-0.0358

Supply recorded z-score for `C=CC[C@]1(C(=O)NCCN2CCOCC2)N=C(c2ccc(OCCCO)cc2)O[C@H]1c1ccccc1N=[N+]=[N-]` here.
-1.05

State its z-score for this compound: `C=C(C(=O)CC[C@H](OC(=O)c1cccnc1)c1ccccc1OCCO)C(C)C`
-2.21

Input `COc1ccc(C#Cc2ccc3c(c2)[C@]2(C(=O)N3)[C@H](C(=O)N3CCc4cc(OC)c(OC)cc4C3)[C@H]3C(=O)O[C@H](c4ccccc4)[C@H](c4ccccc4)N3[C@@H]2c2ccc(OCCO)cc2)cc1` , output reported z-score.
-0.73

###

- TARGET_OF_ASSAY: Albumin (Bos taurus)
- RUN_DESCRIPTION: compounds binding labelled BSA control protein – biochemical, small-molecule microarray, Alexa647 label, 635/667 nm fluorescence, artefact control for SMM control protein annotation, profiling panel (AID 1118);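 also: score merges 667 nm emission intensity and signal-to-noise per printed compound spot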
- SETTINGS: BSA-A647 binding, fluorescence 635 nm, higher = more signal
PROPERTY_LABEL: composite z-score
Reply with the value as a number alone.

// worked examples, composite z-score included
# SMILES_STRING, composite z-score
data = [
    ("COCCn1c(C(=O)N2CCCC2)cc2c1C[C@H]1CN(C(=O)c3ccccc3)[C@@](Cc3ccc(OC)cc3)(C(=O)OC)[C@@H]21", 1.11),
    ("C=CC[C@@]1(C(=O)NCc2ccccc2)N=C(c2ccc(OCCCO)cc2)O[C@@H]1c1ccccc1CN=[N+]=[N-]", 0.889),
    ("C=C(COC)/C(=C/C[C@H](OC(C)=O)c1ccccc1OCCO)c1cnc2ccccc2c1", 0.185),
    ("COc1ccc([Si](C)(C)[C@@H]2[C@@H](CCO)O[C@]3(C(=O)N(Cc4ccc(N5C(=O)c6cccc7cccc5c67)cc4)c4ccccc43)[C@H]2C)cc1", 0.308),
]

Alright, here's another compound for you.
// Input: `C=CCN1Cc2ccccc2C[C@@]2(COC(c3ccc(OCCCO)cc3)=N2)C1=O` . Output its composite z-score only.
-0.476

Taken from PubChem BioAssay.
